Reference source: the supplement of paper PMC7877785

assay: self-splicing fitness, log relative to wild type (ln ratio); higher = more splicing; Tetrahymena group I intron in knt gene, E. coli kanamycin selection, DiMSum; sequences stand for … in CUCUCU…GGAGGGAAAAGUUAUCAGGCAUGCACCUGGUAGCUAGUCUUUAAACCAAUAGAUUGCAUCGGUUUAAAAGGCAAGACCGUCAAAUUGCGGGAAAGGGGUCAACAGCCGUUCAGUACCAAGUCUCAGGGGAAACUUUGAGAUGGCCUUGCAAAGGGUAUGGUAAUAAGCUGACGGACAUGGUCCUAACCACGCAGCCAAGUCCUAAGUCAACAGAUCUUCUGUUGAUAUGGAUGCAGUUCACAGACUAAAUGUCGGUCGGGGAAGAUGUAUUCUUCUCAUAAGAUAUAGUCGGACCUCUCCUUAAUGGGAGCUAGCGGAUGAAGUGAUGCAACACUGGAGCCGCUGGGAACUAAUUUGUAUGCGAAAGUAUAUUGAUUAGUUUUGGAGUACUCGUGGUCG; settings: 30 °C;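 also: selection with 25 µg/mL kanamycin versus none on LB agar overnight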
# label = y if self-splicing fitness (ln) >= -3 else n

>>> df
         sequence_chain  cat
0  CCCGAGCAAUAUUACGAGCG    n
1  ACGCAGCAAUAUUACGGAAA    y
2  CGUCAGCAAUAUUACGCUUU    n
3  ACAGAGCAAUAUUACGCGAG    y
4  AUACAGCAAUAUUACGCCGA    y
5  UGGGAGCAAUAUUACGGCAG    n
6  GAUAAGCAAUAUUACGUCAA    y
7  UCCAAGCAAUAUUACGUAGG    y
8  GCUAAGCAAUAUUACGACGA    y
9  GAACAGCAAUAUUACGUUAA    y

Check if self-splicing fitness (ln) >= -3 (inclusive). Item: AUACAGCAAUAUUACGCCCU
y

Record GGCAAGCAAUAUUACGGAAC ; criterion: self-splicing fitness (ln) no lower than -3. Met?
y
